The measurements presented in this section are drawn from the Immune Epitope Database (IEDB).

tested.system: HLA-A*03:01
method.notes: IEDB peptide-MHC binding, purified MHC/direct/fluorescence; filed as Kd, often an IC50 or EC50 that approximates it; bounds were set here for any values at or beyond the usual limits of such assays
condition.info: source organism: Giardia lamblia ATCC 50803
Documented Kd across a set of sequences
endpoint: Kd (nM)

ordered.residues: IVKYKQYLK
unit.label: nM
bound.type: =
experimental.value: 81.5
//
ordered.residues: RIYDPLWFQ
unit.label: nM
bound.type: ≥
experimental.value: 20000
//
ordered.residues: SVFHEHIFK
unit.label: nM
bound.type: =
experimental.value: 154
//
ordered.residues: ASSWAPTQK
unit.label: nM
bound.type: =
experimental.value: 510
//
ordered.residues: YIASIFMPR
unit.label: nM
bound.type: =
experimental.value: 335
